Entry source: PubChem BioAssay

testMethodNotes: binders of probe aHhip on microarray, primary screen, stem cell growth factor project, biochemical, small-molecule microarray, fluorescence 635/667 (AID 1087);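 note: score merges spot fluorescence at 667nm with spot signal to noise ratio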
testParameters: higher = more signal
Measured composite z-score, listed per entry for reference.

compound	composite z-score
COC(=O)[C@@]1(Cc2ccc(OC)cc2)[C@H]2c3cc(C(=O)N4CCCC4)n(Cc4ccsc4Br)c3C[C@H]2CN1C(=O)c1ccccc1	-0.367
COCCCN1C(=O)[C@@]2(c3ccc([N+](=O)[O-])cc3)CC(=O)N(C3CCCCC3)[C@@H]2c2ccc(CO)cc21	-0.134
CCCCC=C[C@@H](NC(=O)Oc1cccc(C(F)(F)F)c1)c1ccccc1	2.27
Cc1ccc(C(C)CC(O)C2C=CC3C(=O)N(c4ccccc4)C(=O)C3N2Nc2ccc([N+](=O)[O-])cc2)o1 (stereo not given)	0.0373
C=CCOC(=O)[C@H]1[C@@H]2C(=O)O[C@@H](c3ccccc3)[C@@H](c3ccccc3)N2[C@@H](c2ccc(OCCOC(=O)[C@@H]3C[C@@H]4C(=O)N[C@@H](CCCCN(C)C)C(=O)N4[C@@H]3c3ccc(O)cc3)cc2)[C@]12C(=O)Nc1ccc(I)cc12	-0.112

* * *

targetSystem: Follistatin-related protein 3 (Homo sapiens)
testMethodNotes: FSTL3 binders on small-molecule microarrays, primary screen, biochemical, small-molecule microarray, 635 nm fluorescence (AID 1105);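 note: score merges emission near 667 nm and signal to noise per printed spot across three slides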
testParameters: FSTL3 binding, higher = more signal
Listed compounds paired with reported composite z-score

compound	composite z-score
CCCCC(O)C1C=CC2C(=O)N(c3ccccc3)C(=O)C2N1Nc1ccccc1F (centres undefined)	0.443
C=C(CCCC)C(=O)CC[C@H](OC(=O)c1cccnc1)c1ccccc1OCCO	0.12
CCOC(=O)[C@H]1C/C=C/C[C@H](C(=O)OCC)C(=O)O[C@H]2[C@@H](OC)O[C@H](CO)[C@@H](OC(=O)Nc3ccc(C#N)cc3)[C@@H]2OC1=O	0.413
CC(C)C[C@H]1NC(=O)[C@@]23C(=O)N[C@@H](Cc4ccccc4)C2[C@H](C)[C@@]2(C)O[C@H]2C3/C=C/C/C=C\CNC(=O)[C@H](Cc2ccccc2)NC1=O (some centres undefined)	0.816

* * *

targetSystem: Epidermal growth factor receptor (Homo sapiens)
testMethodNotes: EGFR binders on small-molecule microarrays, primary screen, biochemical, small-molecule microarray, 635 nm fluorescence (AID 1104);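 note: score merges 667 nm emission intensity with spot signal to noise over triplicate slides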
testParameters: EGFR binding, higher = more signal
Tick Satisfied if composite z-score is -0.1 or greater. Tick Not satisfied if composite z-score is less than -0.1.

compound	assignedClass
COc1cc2c(cc1O)C(C1CC1)N(Cc1cc3c(cc1Br)OCO3)CC2 (stereo not drawn)	Not satisfied
COCCOC(=O)N1C(=O)[C@@]2(c3cc(C#Cc4ccc(OC)cc4)ccc31)[C@H](c1ccc(O)cc1)N1[C@H](c3ccccc3)[C@H](c3ccccc3)OC(=O)[C@H]1[C@@H]2C(=O)NC[C@H](O)c1ccccc1	Satisfied
CN1C(=O)C2C=CC(C(O)c3ccc(-c4ccccc4)s3)N(N(c3ccccc3)c3ccccc3)C2C1=O (stereo not drawn)	Satisfied
C=CC[C@@]1(C(N)=O)N=C(c2ccc(OCCCO)cc2)O[C@@H]1c1ccccc1CN=[N+]=[N-]	Not satisfied
C=CC[C@@]1(C(=O)NCc2ccccc2)N=C(c2ccc(OCCCO)cc2)O[C@@H]1c1ccccc1N=[N+]=[N-]	Not satisfied
CCCC#C[Si](O[C@H](CC)c1cn([C@H](CO)Cc2ccccc2)nn1)(C(C)C)C(C)C	Satisfied
O=C(NCC(F)(F)F)[C@@H]1c2ccccc2C(=O)N(C2CCCCC2)[C@H]1c1ccc(CO)cc1	Not satisfied
COCCCNC(=O)[C@@]1(Cc2ccccc2N=[N+]=[N-])N=C(c2ccc(OCCCO)cc2)O[C@H]1c1ccccc1N=[N+]=[N-]	Satisfied

* * *

targetSystem: Torsin-1A (Homo sapiens)
testMethodNotes: small-molecule binders of mutant TOR1A in lysate, primary screen, cell lysate, small-molecule microarray, COS7 lysate, 635/667 nm fluorescence (AID 1150);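 note: score pools 667 nm emission and signal to noise measuring lysate protein binding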
testParameters: COS7 hTOR1A mutant lysate, 635 nm fluorescence, higher = more signal
measuredParameter: composite z-score

compoundStructure	measuredParameter	val
C=CC[C@@]1(C(N)=O)N=C(c2ccc(OCCCO)cc2)O[C@@H]1c1ccccc1CN=[N+]=[N-]	composite z-score	0.0254
O=C1O[C@H](c2ccccc2)[C@H](c2ccccc2)N2[C@H]1[C@@H](C(=O)N1CCN(c3ncccn3)CC1)[C@]1(C(=O)Nc3ccc(C#CC4=CCCCC4)cc31)[C@H]2c1ccc(O)cc1	composite z-score	0.839
CCc1oc(CC[C@@H](CO)NC(=O)NCCn2cc(C3(O)CCCCC3)nn2)c(C(=O)OC)c1C(=O)OC	composite z-score	1.11

* * *

targetSystem: Fibroblast growth factor 2 (Homo sapiens)
testMethodNotes: FGF2 binders on small-molecule microarrays, primary screen, biochemical, small-molecule microarray, 635/667 nm fluorescence (AID 1133)
testParameters: small-molecule microarray binding, FGF2, fluorescence 635/667; higher = more signal

molecule	composite z-score
CN1C(=O)C2C=CC(C(O)c3cc(C(F)(F)F)cc(C(F)(F)F)c3)N(N3CCCCC3)C2C1=O (stereo not drawn)	-0.397
C[C@]1(C(=O)NC2CC2)c2ccccc2C(=O)N(Cc2cc(C(F)(F)F)cc(C(F)(F)F)c2)[C@H]1c1ccc(CO)cc1	0.998
CC(C)(C)OC(=O)CC[C@@]1(C(=O)NCCN2CCOCC2)N=C(c2ccc(OCCCO)cc2)O[C@@H]1c1ccccc1N=[N+]=[N-]	-0.156
CC(C)OC(=O)C=C1C[C@@H](c2ccccc2C(F)(F)F)O[C@@H](c2ccccc2C(F)(F)F)O1	0.179
C=CC[C@]1(C(=O)N2CCCCC2)N=C(c2ccc(OCCCO)cc2)O[C@H]1c1ccccc1	-0.165
C=CCNC(=O)[C@@H]1[C@H]2C(=O)O[C@H](c3ccccc3)[C@H](c3ccccc3)N2[C@H](c2ccccc2OCCO)[C@@]12C(=O)N(C(=O)OCCOC)c1ccc(C#CCNC(N)=O)cc12	0.658
O=C1c2ccccc2[C@@]2(Cc3ccccc3N(CC(F)(F)F)C2=O)[C@H](c2ccc(CO)cc2)N1Cc1ccccc1Cl	0.652
CC(C)C[C@@H]1NC(=O)[C@H]2C[C@@H](C(=O)NCCCCCCN(C)C)[C@@H](c3ccc(O)cc3)N2C1=O	1.29

* * *

testMethodNotes: compound binding in COS7 lysate, probe aLAP1, primary screen, cell lysate, small-molecule microarray (AID 1124);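 note: lysate comes from COS7 cells expressing LAP1 and is applied at 0.3 µg/mL; score merges spot fluorescence near 667 nm with signal-to-noise over triplicate slides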
testParameters: probe aLAP1, fluorescence, higher = more signal
Some compounds, each annotated with its measured composite z-score.
measuredParameter: composite z-score

compoundStructure	measuredParameter	val
O=C1O[C@H](c2ccccc2)[C@H](c2ccccc2)N2[C@H]1[C@@H](C(=O)Nc1nc3ccccc3s1)[C@]1(C(=O)Nc3ccc(C#CCCO)cc31)[C@H]2c1ccc(OCCO)cc1	composite z-score	0.516
O=C1C[C@]2(c3ccc([N+](=O)[O-])cc3)C(=O)N(CCN3CCOCC3)c3cc(CO)ccc3[C@H]2N1C1CCCCC1	composite z-score	-0.467
C=CCOC(=O)[C@H]1[C@@H]2C(=O)O[C@@H](c3ccccc3)[C@@H](c3ccccc3)N2[C@@H](c2ccc(OCCOC(=O)[C@@H]3C[C@@H]4C(=O)N[C@@H](CCCCN(C)C)C(=O)N4[C@@H]3c3ccc(O)cc3)cc2)[C@]12C(=O)Nc1ccc(I)cc12	composite z-score	0.278

* * *

testMethodNotes: binders from COS7 lysate, DM2A8 probe, primary screen, torsin A project, cell lysate, small-molecule microarray, fluorescence 635/667 (AID 1065)
testParameters: higher = more signal, COS7 lysate expressing mutant human TOR1A
measuredParameter: composite z-score

> print(dat)
                                   compound     val
1  COc1ccc(CCNC(=O)[C@@]2(Sc3ccc(C)cc3)CC(=O)N(C3CCCCC3)[C@@H]2c2ccc(CO)cc2I)cc1   0.567
2  CCOC1=C2C(CN(S(=O)(=O)c3ccc(C)cc3)C2c2ccc(C)cc2)C2C(=O)N(c3ccccc3)C(=O)C2C1 (stereo not drawn)  -0.155
3  COc1ccc(C(=O)Nc2cccc(CN3C(=O)[C@]4(O[C@H](CCO)[C@@H]([Si](C)(C)c5ccc(OC)cc5)[C@@H]4C)c4ccccc43)c2)cc1   0.193

* * *

Form field: z-score (one value per entry).
testMethodNotes: PSAC antagonists in infected red cells, primary screen, cell-based, P. falciparum Indochina, OD700, 18 h (AID 1157)
testParameters: P. falciparum Indochina infected erythrocytes, osmotic lysis OD700, 18 h; higher = more signal, called active from +8 up or from −8 down

compound	z-score
O=C(NCc1ccccc1)[C@@]1(CCS(=O)(=O)c2ccccc2)N=C(c2ccc(OCCCO)cc2)O[C@H]1c1ccccc1	1.99
CCOc1cc(C(O)C2C=CC3C(=O)N(c4ccccc4)C(=O)C3N2Nc2ccccc2)ccc1O (stereo unspecified)	0.949
C[C@@]1([C@@H](NC(=O)c2ccccc2)c2ccc(-c3ccccc3)cc2)C[C@H]1C1CCCCC1	0.888
COC(=O)C=C(CC(O)c1cccc(Cl)c1)OC (stereo unspecified)	-0.936
C=CCC(OC(C)=O)[C@@H]1[C@@H](N(Cc2ccc(-c3cccc(C(F)(F)F)c3)o2)C(=O)Cc2ccc(F)cc2)c2cc(OCCCO)ccc2N1C(=O)Cc1ccc(OC)cc1 (stereo partly specified)	-0.668
COc1ccc(CCNC(=O)[C@@]2(Sc3ccc(C)cc3)CC(=O)N(C3CCCCC3)[C@@H]2c2ccc(CO)cc2I)cc1	0.252
COc1ccc([Si](C)(C)[C@H]2[C@H](CCn3cc([C@H](O)c4ccccc4)nn3)O[C@@]3(C(=O)N(Cc4cccc(N5CCOC5=O)c4)c4ccccc43)[C@@H]2C)cc1	1.4
CN(C)CCCNC(=O)[C@@]1(c2ccc([N+](=O)[O-])cc2)CC(=O)N(C2CCCCC2)[C@@H]1c1ccc(CO)cc1	-0.0633
Cc1ccc(S[C@]2(C(=O)NCC(C)C)CC(=O)N(Cc3cc(C(F)(F)F)cc(C(F)(F)F)c3)[C@@H]2c2ccc(CO)cc2I)cc1	0.278
COc1ccc([C@H]2C[C@H]3C(Br)=C[C@@H]2C(=O)[C@]32CO2)cc1	0.207
COc1ccc([Si](C)(C)[C@H]2[C@H](CC(=O)N3Cc4ccccc4C[C@H]3CO)O[C@@]3(C(=O)N(Cc4ccc(N5CCC5=O)cc4)c4ccccc43)[C@@H]2C)cc1	1.11
